# Tested on: CAKI-1 renal
# Method notes: NCI-60 one-dose screen, 48 h
# Experimental parameters: 10 µM unless noted
About 83,000 compounds went through this panel and 20% of them were active in at least one assay; those are over-represented in the sample as a whole. The source made the active and inactive calls. Rule for the calls: active = growth percent below 10; inactive = the rest.
Result category, one only: active, inactive

**Query** I'd appreciate the recorded outcome for CC1(C)CC[C@]2(C(=O)O)CC[C@]3(C)C(=CC[C@@H]4[C@@]5(C)C/C(=C/c6ccco6)C(=O)C(C)(C)[C@@H]5CC[C@]43C)[C@@H]2C1 from this test.
**Result** active

**Query** Repeat for the following compound: O=C(Oc1ccc(Cl)cc1[N+](=O)[O-])Oc1ccc(Cl)cc1[N+](=O)[O-]
**Result** inactive

**Query** Repeat for the following compound: Cn1cc(-c2nnc(-c3ccccc3)s2)c2cc(Br)cnc21
**Result** inactive

**Query** Repeat for the following compound: CCCCC1COc2cccc3c2N1C=C/C3=C\C(=O)n1ccc2ccccc21 (configuration not stated)
**Result** inactive

**Query** Repeat for the following compound: c1ccc(-c2n[nH]c(-c3ccccn3)n2)nc1
**Result** inactive

**Query** Repeat for the following compound: O=C(Nc1ccc(Oc2ccc(F)cc2)c(Cl)c1)c1cccnn1
**Result** inactive

**Query** Repeat for the following compound: Clc1ccc(/C=N/Nc2nc3ccccc3s2)c(Cl)c1
**Result** inactive

**Query** Repeat for the following compound: COc1cc(-c2nc(SCCC(C)C)nc(Nc3ccccc3)c2C#N)cc(OC)c1OC
**Result** inactive

**Query** Repeat for the following compound: O=C(OCc1ccc2c(Cl)cc(Cl)c(O)c2n1)N1CCN(C(=O)c2cc3cc(F)ccc3[nH]2)CC1
**Result** inactive

**Query** Repeat for the following compound: COc1cc(NCc2cn(-c3ccc(C(=O)O)cc3)nc2-c2ccc(C(=O)O)cc2)cc(OC)c1OC
**Result** inactive

**Query** Repeat for the following compound: c1ccc(-c2nc(N3CCCNCC3)c3nc(-c4ccccc4)oc3n2)cc1
**Result** inactive

**Query** Repeat for the following compound: NNC(=O)c1ccc(C(=O)NN)cc1
**Result** inactive

**Query** Repeat for the following compound: O=C1CC(c2ccccc2)Cc2nc3ccc(Cl)cc3cc21 (configuration not stated)
**Result** inactive

**Query** Repeat for the following compound: CC[C@@H]1NC(=O)[C@@H]2CCCCN2C(=O)[C@@H]2CCCN2C(=O)[C@@H](NC(=O)[C@H](Cc2cc(F)cc(F)c2)NC(=O)Nc2ccc(C3CC3)cc2F)[C@H](C)OC(=O)[C@@H]2C[C@@H](C)CN2C1=O
**Result** active

**Query** Repeat for the following compound: O=C(N=c1n(-c2ccccc2)nc2n1CCN2C1=NCCN1)c1ccc(Cl)cc1
**Result** inactive

**Query** Repeat for the following compound: Cc1ccc(NC(=O)N[C@@H](Cc2cc(F)cc(F)c2)C(=O)N[C@@H]2C(=O)N3CCC[C@H]3C(=O)N3CCOC[C@H]3C(=O)N[C@@H](C)C(=O)N3C[C@H](C)C[C@H]3C(=O)O[C@H]2C)cc1
**Result** inactive

**Query** Repeat for the following compound: CN(Cc1cccc(C(F)(F)F)c1)C(=O)[C@@H](CC(=O)N1CCC(N2CCCCC2)CC1)N1C(=O)[C@@H](N2C(=O)OC[C@@H]2c2ccccc2)[C@H]1/C=C/c1ccccc1
**Result** inactive

----------
# Tested on: MDA-MB-435 melanoma
# Method notes: NCI-60 one-dose screen, 48 h
# Experimental parameters: 10 µM unless noted
Compounds without any hit were thinned out: in the full panel of roughly 83,000, 20% have a hit. The source made the active and inactive calls. The calls were made as follows: active = growth percent below 10; inactive = the rest.
Result category, one only: active, inactive

**Query** I'd appreciate the recorded outcome for COc1ccc(NC(=S)NNc2ccc(-c3ccc(OC)c(OC)c3)nn2)cc1 from this test.
**Result** inactive

**Query** Repeat for the following compound: O=C1CC(c2ccccc2)Cc2nc3ccc(Cl)cc3cc21 (stereo not drawn)
**Result** active

**Query** Repeat for the following compound: CCOc1ccccc1/C=N\Nc1ccc(S(=O)(=O)c2ccc(N/N=C/c3ccccc3OCC)cc2)cc1
**Result** inactive

**Query** Repeat for the following compound: CCN1c2ccccc2C(Cl)(c2ccc(N(C)C)cc2)c2ccccc21
**Result** inactive

**Query** Repeat for the following compound: CN(C)c1cc(NN=C(c2ccc(O)cc2)c2ccc(O)cc2)c([N+](=O)[O-])cc1[N+](=O)[O-]
**Result** inactive

**Query** Repeat for the following compound: Cn1cc(-c2noc(C(=O)c3cn(C)c4ncc(Br)cc34)n2)c2ccccc21
**Result** inactive

**Query** Repeat for the following compound: Cc1cc(C)c(-c2cc(O)c(-c3c(C)cc(C)cc3C)cc2O)c(C)c1
**Result** active

**Query** Repeat for the following compound: C=C(CC(=O)OC)C(C)=O
**Result** inactive

**Query** Repeat for the following compound: O=[N+]([O-])c1cc([N+](=O)[O-])c(NN=C(c2ccc(O)cc2)c2ccc(O)cc2)cc1Cl
**Result** active

**Query** Repeat for the following compound: C=C(C)[C@@H]1CC[C@]2(COC(=O)c3ccccc3C(=O)O)CC[C@]3(C)[C@H](CC[C@@H]4[C@@]5(C)CC[C@H](OC(=O)c6ccccc6C(=O)O)C(C)(C)[C@@H]5CC[C@]43C)[C@@H]12
**Result** inactive

**Query** Repeat for the following compound: COc1cc2c(cc1OCCCN1CCN(CCCOc3cc4c(cc3OC)C(=O)N3C[C@H](F)C[C@H]3C=N4)CC1)N=C[C@@H]1C[C@@H](F)CN1C2=O
**Result** active

**Query** Repeat for the following compound: CCOC(=O)c1cc(C(=O)c2ccc(OC)c(OC)c2)n2ccc(-c3ccccn3)cc12
**Result** inactive

**Query** Repeat for the following compound: Cc1cc(SC#N)ncn1
**Result** inactive

**Query** Repeat for the following compound: COc1ccc(C(C(=O)O)c2ccc(OC)cc2)cc1
**Result** inactive

**Query** Repeat for the following compound: COc1cc(NN=C(c2ccc(O)cc2)c2ccc(O)cc2)c([N+](=O)[O-])cc1[N+](=O)[O-]
**Result** inactive

**Query** Repeat for the following compound: COc1cc(OC)cc(C(=O)Nc2cc(-c3cccnc3)nc(NCCCN3CCOCC3)n2)c1
**Result** inactive

**Query** Repeat for the following compound: O=C1CC(C(F)(F)F)Cc2nc3ccc(Br)cc3cc21 (stereo not drawn)
**Result** inactive

**Query** Repeat for the following compound: COc1cc(/C=C/C(=O)/C=C/c2ccc(-n3ccnc3)cc2)ccc1O
**Result** active

**Query** Repeat for the following compound: CCOC(=O)c1nc2c3ccccc3ccn2c1C(=O)OC
**Result** inactive

**Query** Repeat for the following compound: CC(C)=CC/C=C(/C)[C@H]1CC[C@]2(C)[C@@H]1CC[C@@H]1[C@@]3(C)CCCNC(C)(C)[C@@H]3CC[C@]12C
**Result** active

**Query** Repeat for the following compound: C[n+]1c2ccccc2nc2c(N)cc(N)cc21
**Result** inactive

**Query** Repeat for the following compound: Cc1cnc([C@]23CC[C@@H](C)[C@H](C)[C@H]2C2=CC[C@@H]4[C@@]5(C)Cc6c([nH]c7ccccc67)C(C)(C)[C@@H]5CC[C@@]4(C)[C@]2(C)CC3)o1
**Result** active

**Query** Repeat for the following compound: CC1(C)CC[C@]2(C(=O)OC(=O)[C@]34CCC(C)(C)C[C@@H]3C3=CC[C@@H]5[C@@]6(C)CCC(=O)C(C)(C)[C@@H]6CC[C@@]5(C)[C@]3(C)CC4)CC[C@]3(C)C(=CC[C@@H]4[C@@]5(C)CCC(=O)C(C)(C)[C@@H]5CC[C@]43C)[C@H]2C1
**Result** inactive

**Query** Repeat for the following compound: CCOc1ccc(S(=O)(=O)Nc2ccc3c(c2)N(S(=O)(=O)CC)CCC3)cc1
**Result** inactive

**Query** Repeat for the following compound: COc1ncc(-c2ccc3nccc(C#CCCCCC(=O)O)c3c2)cc1NS(=O)(=O)c1ccc(F)cc1F
**Result** inactive

**Query** Repeat for the following compound: CCn1cc(-c2ccnc(NCCNS(=O)(=O)c3cccc4ccccc34)c2)c(-c2cccc(O)c2)n1
**Result** inactive

**Query** Repeat for the following compound: C#C[C@]1(O)CC[C@H]2[C@@H]3CC=C4c5nc(Nc6ncccn6)sc5CC[C@]4(C)[C@H]3CC[C@@]21C
**Result** inactive

**Query** Repeat for the following compound: Fc1cc2[nH]ncc2c2c3c(c(-c4cn[nH]c4C(F)(F)F)nc12)C1CCC3C1 (stereo not drawn)
**Result** inactive

**Query** Repeat for the following compound: C1=C[C@H]2O[C@@H]1c1ccc3[nH]ccc3c12
**Result** active

**Query** Repeat for the following compound: COc1cc2c(O)n(CCCN3CCOCC3)c3c4cnc5cccc(c(=O)c3c2cc1OC)c54
**Result** inactive

**Query** Repeat for the following compound: COC(=O)[C@H](CC(C)C)NC(=O)NC(=O)NC(=O)CI
**Result** inactive

**Query** Repeat for the following compound: Nc1nc(Nc2ccccc2)c2ncn(Cc3cc4c(cc3Br)OCO4)c2n1
**Result** active

**Query** Repeat for the following compound: COc1ccc(C(=O)c2nccc3cc(OC)c(OC)cc23)cc1OC
**Result** inactive

**Query** Repeat for the following compound: Cn1cc(-c2noc(-c3cn(C)c4ncc(F)cc34)n2)c2cc(Cl)ccc21
**Result** inactive

**Query** Repeat for the following compound: COc1ccc(/C=C/C=C\C(=O)c2ccc(-n3ccnc3)cc2)cc1
**Result** inactive

**Query** Repeat for the following compound: Cn1cc(-c2noc(C(=O)c3cn(C)c4ncccc34)n2)c2ccccc21
**Result** inactive

**Query** Repeat for the following compound: O=C(O)CC1CCCCC1c1ccccc1 (stereo not drawn)
**Result** inactive

**Query** Repeat for the following compound: C=CCCC1(C)NC(=O)NC1=O (stereo not drawn)
**Result** inactive
